- SYSTEM UNDER TEST: T1, MBP-SUFU-Δ (human, UniProt Q9UMX1 32-278; Q9UMX1 361-483)
- T1 chain: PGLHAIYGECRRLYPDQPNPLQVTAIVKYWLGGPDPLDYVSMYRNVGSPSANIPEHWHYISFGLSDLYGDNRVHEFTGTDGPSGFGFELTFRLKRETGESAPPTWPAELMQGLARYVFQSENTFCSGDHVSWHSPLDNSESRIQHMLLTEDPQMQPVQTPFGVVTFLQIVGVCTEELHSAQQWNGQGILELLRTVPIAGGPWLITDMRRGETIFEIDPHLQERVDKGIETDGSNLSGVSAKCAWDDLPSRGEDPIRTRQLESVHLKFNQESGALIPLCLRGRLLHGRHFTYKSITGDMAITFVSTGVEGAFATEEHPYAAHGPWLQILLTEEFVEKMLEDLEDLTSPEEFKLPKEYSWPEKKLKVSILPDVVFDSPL
- PROTOCOL SUMMARY: MST
Where no end group is shown, it is not given here. The star is where a group is joined. 5FAM = O=C1OC2(c3ccc(O)cc3Oc3cc(O)ccc32)c2ccc(C(=O)*)cc21
PARAMETER MEASURED: pKd
Give bare numbers, as −log10 of the molar value.

May I ask what pKd has been recorded for 5FAM-TSPGGSYGHLSIGTMSP [FAM-GLI1p] ?
5.35

These data points were gathered from paper PMC3852661.
